The reported numbers originate from PubChem BioAssay.

Experiment: compound effects on multiple myeloma cell viability – MM1S, calcein-AM fluorescence, 48 h, basal, profiling panel (AID 1165);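 also: viability of MM1S multiple myeloma cells under basal unstimulated conditions; test concentration not given here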
Conditions: higher = more signal
OBSERVABLE: z-score
Would you mind answering with just the numeric figure?

>>> reading("[N-]=[N+]=NCc1ccccc1[C@H]1OC(c2ccc(OCCCO)cc2)=N[C@@]1(Cc1ccccc1)C(N)=O")
-0.0987
>>> reading("O=C1O[C@H](c2ccccc2)[C@H](c2ccccc2)N2[C@H]1[C@@H](C(=O)N1CCCCCCC1)[C@]1(C(=O)Nc3ccc(C#CCCO)cc31)[C@H]2c1ccc(OCCO)cc1")
-0.276
>>> reading("COCCCNC(=O)[C@@]1(Cc2ccccc2N=[N+]=[N-])N=C(c2ccc(OCCCO)cc2)O[C@H]1c1ccccc1CN=[N+]=[N-]")
-1.72
>>> reading("COc1ccc([Si](C)(C)[C@@H]2[C@@H](CCO)O[C@]3(C(=O)N(Cc4ccccc4)c4ccc(N5CCCCC5=O)cc43)[C@H]2C)cc1")
-1.58
>>> reading("NC(=O)[C@@H]1[C@H]2C(=O)O[C@H](c3ccccc3)[C@H](c3ccccc3)N2[C@H](c2ccccc2OCCO)[C@@]12C(=O)Nc1ccc(C#CCCO)cc12")
0.448
>>> reading("CC(=O)NCCCC[C@@H]1NC(=O)[C@@H]2C[C@H](C(=O)NCCCC[N+](C)(C)C)[C@H](c3cccc(OCCO)c3)N2C1=O")
-0.265
>>> reading("COCCOC(=O)N1C(=O)[C@@]2(c3cc(C#CCNC(N)=O)ccc31)[C@H](C(=O)N1CCCCCCC1)[C@H]1C(=O)O[C@H](c3ccccc3)[C@H](c3ccccc3)N1[C@@H]2c1ccc(OCCO)cc1")
0.246
>>> reading("CC1=C2[C@@H](CCc3ccccc3)OB(O)C[C@@H]2[C@@H]2C(=O)C=CC(=O)[C@@H]2C1")
-3.38
>>> reading("COCCCNC(=O)[C@]1(Cc2ccccc2)N=C(c2ccc(OCCCO)cc2)O[C@@H]1c1ccccc1N=[N+]=[N-]")
-1.78
>>> reading("C=CCOC(=O)[C@@H]1[C@H]2C(=O)O[C@H](c3ccccc3)[C@H](c3ccccc3)N2[C@H](c2ccc(OCCOC(=O)[C@@H]3C[C@@H]4C(=O)N[C@@H](CCCCNC(C)=O)C(=O)N4[C@@H]3c3ccc(O)cc3)cc2)[C@@]12C(=O)Nc1ccc(I)cc12")
-0.154

// query z-score value for entry NC(=O)NCC#Cc1ccc2c(c1)[C@]1(C(=O)N2)[C@H](c2ccc(OCCO)cc2)N2[C@H](c3ccccc3)[C@H](c3ccccc3)OC(=O)[C@H]2[C@@H]1C(=O)N1CCN(c2ncccn2)CC1
-0.167

// query z-score value for entry O=C1OCC=C[C@H]2OC34C=CCN(CCN5CCOCC5)C(=O)[C@H]3N(CCCCCO)C(=O)[C@@H]4[C@@H]12 (some centres not stated)
0.148

---

Molecular target: Torsin-1A (Homo sapiens) (UniProt O14656)
Sequence (O14656 whole entry, looked up): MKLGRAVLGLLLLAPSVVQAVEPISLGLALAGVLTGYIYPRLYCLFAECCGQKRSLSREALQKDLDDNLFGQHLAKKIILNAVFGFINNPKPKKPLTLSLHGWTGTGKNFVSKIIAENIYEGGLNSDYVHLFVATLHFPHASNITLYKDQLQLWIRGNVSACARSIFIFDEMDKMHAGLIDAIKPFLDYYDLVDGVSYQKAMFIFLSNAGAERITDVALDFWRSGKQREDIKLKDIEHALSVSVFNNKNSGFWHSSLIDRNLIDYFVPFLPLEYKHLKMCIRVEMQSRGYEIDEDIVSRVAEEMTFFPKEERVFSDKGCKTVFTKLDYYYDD
Experiment: TOR1A wild-type binding on microarray – cell lysate, small-molecule microarray, lysate, 635/667 nm, primary screen (AID 1149)
Details: COS7 hTOR1A-WT lysate, 635 nm fluorescence, higher = more signal
Measured composite z-score determines class: category 1 (below -0.3), category 2 (-0.3 to below 0.8), category 3 (0.8 or more)

>>> label_class("CN(C)CCCN1C(=O)[C@@]2(Cc3ccccc31)c1ccccc1C(=O)N(Cc1ccccc1)[C@H]2c1ccc(CO)cc1")
"category 2"

Next molecule, please.
Into which bin does this molecule go? O=C1N(CCS(=O)(=O)c2ccccc2)c2ccccc2[C@H]2OC(c3ccc(OCCCO)cc3)=N[C@@]12CCS(=O)(=O)c1ccccc1
category 2

---

Measured composite z-score of individual entries
Biological target: Follistatin (Homo sapiens)
Test: FST protein binding to printed compounds – biochemical, small-molecule microarray, 635/667 nm fluorescence, primary screen (AID 1132)
Conditions: 635 nm fluorescence, higher = more signal

Some solved entries appear below for comparison.
>>> reading("COCCOC(=O)N1C(=O)[C@@]2(c3ccccc31)[C@H](c1ccc(OCCO)cc1)N1[C@H](c3ccccc3)[C@H](c3ccccc3)OC(=O)[C@H]1[C@@H]2C(=O)NC[C@H](O)c1ccccc1")
1.32
>>> reading("CCCc1cc2c(n1Cc1ccc(OC)cc1)C(C)C1CN(C(=O)c3ccccc3)C(C)(C(=O)OC)C21 (stereo unspecified)")
0.0092
>>> reading("Cc1ccc(N2C(=O)c3ccccc3[C@](C)(C(=O)NC(C)C)[C@@H]2c2ccc(CO)cc2)nc1")
-0.739
>>> reading("COCCCNC(=O)[C@@]1(Cc2ccccc2I)c2ccccc2C(=O)N(Cc2ccccc2Cl)[C@H]1c1ccc(CO)cc1")
0.583
>>> reading("COCCOC(=O)N1C(=O)[C@@]2(c3cc(C#Cc4ccc(OC)cc4)ccc31)[C@H](C(=O)N1CCc3cc(OC)c(OC)cc3C1)[C@H]1C(=O)O[C@H](c3ccccc3)[C@H](c3ccccc3)N1[C@@H]2c1ccc(OCCO)cc1")
1.19

Find the measured composite z-score: item CC(C)(C)OC(=O)CC[C@]1(C(=O)N2CCCCC2)N=C(c2ccc(OCCCO)cc2)O[C@H]1c1ccccc1CN=[N+]=[N-] , target or system Follistatin (Homo sapiens).
1.4

---

Target: NADPH oxidase 2 (Homo sapiens)
Experiment: compounds shifting NOX2 Amplex Red fluorescence – cell-based, HEK293-NOX2, PMA-stimulated, NOX inhibitor project, primary screen (AID 1159); also: test concentration not given here
Conditions: 45 min, higher = more signal, called active from +8 up or from −8 down
OBSERVABLE: z-score
Would you mind answering with just the numeric figure?

>>> reading("COc1ccc(C#Cc2ccc3c(c2)[C@]2(C(=O)N3)[C@H](C(=O)O)[C@H]3C(=O)O[C@H](c4ccccc4)[C@H](c4ccccc4)N3[C@@H]2c2ccc(OCCO)cc2)cc1")
1.67
>>> reading("C=CCOC(=O)[C@H]1[C@@H]2C(=O)O[C@@H](c3ccccc3)[C@@H](c3ccccc3)N2[C@@H](c2ccc(OCCOC(=O)[C@H]3C[C@H]4C(=O)N[C@@H](CCCCN(C)C)C(=O)N4[C@H]3c3ccc(O)cc3)cc2)[C@]12C(=O)Nc1ccccc12")
2.21
>>> reading("COc1ccc(CCNC(=O)[C@@H]2c3ccccc3C(=O)N(Cc3ccccc3C(F)(F)F)[C@H]2c2ccc(CO)cc2)cc1")
-0.536
>>> reading("CC(C)CN1C(=O)[C@@]2(Cc3ccccc31)c1ccccc1C(=O)N(Cc1ccccc1)[C@H]2c1ccc(CO)cc1")
0.439

// query z-score value for entry CC1(C)[C@@H]2CC(C(O)C3C=CC4C(=O)N(c5ccccc5)C(=O)C4N3Nc3ccccc3F)=C[C@@H]1C2 (stereo partly specified)
0.318

// query z-score value for entry NC(=O)NCC#Cc1ccc2c(c1)[C@]1(C(=O)N2)[C@H](c2ccc(OCCO)cc2)N2[C@H](c3ccccc3)[C@H](c3ccccc3)OC(=O)[C@H]2[C@@H]1C(=O)N1CCCCCCC1
1.9

---

Molecular target: Concanavalin-A (Canavalia ensiformis)
Assay: compounds binding concanavalin A lectin – biochemical, small-molecule microarray, Alexa647 label, 635 nm, artefact control for SMM control protein annotation, primary screen (AID 1127);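 also: z combines 667 nm emission intensity with signal-to-noise across three replicate slides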
Conditions: ConA-A647 binding fluorescence, higher = more signal
Measured composite z-score of individual entries
Would you mind answering with just the numeric figure?

>>> reading("COc1ccc([Si](C)(C)[C@H]2[C@H](CCO)O[C@@]3(C(=O)N(Cc4cccc(N5CCOC5=O)c4)c4ccccc43)[C@@H]2C)cc1")
1.1
>>> reading("Cc1ccc(F)cc1S(=O)(=O)N[C@@H]1CCN(C(=O)c2ccc(OC(C)C)cc2)C1")
0.0897
>>> reading("COc1cc2c(cc1OC)CN(C(=O)[C@@H]1[C@H]3C(=O)O[C@H](c4ccccc4)[C@H](c4ccccc4)N3[C@H](c3ccc(OCCO)cc3)[C@@]13C(=O)Nc1ccc(C#CCCO)cc13)CC2")
1.02
>>> reading("CC(C)NC(=O)[C@@]1(Cc2ccccc2I)c2ccccc2C(=O)N(Cc2ccccc2C(F)(F)F)[C@H]1c1ccc(CO)cc1")
0.548
>>> reading("COc1ccc([Si](C)(C)[C@@H]2[C@@H](CCO)O[C@]3(C(=O)N(Cc4ccccc4)c4ccc(N5CCCCC5=O)cc43)[C@H]2C)cc1")
1.12

// query composite z-score value for entry CC(C)(C)OC(=O)CC[C@@]1(C(=O)N2CCCCC2)N=C(c2ccc(OCCCO)cc2)O[C@@H]1c1ccccc1CN=[N+]=[N-]
1.18

// query composite z-score value for entry CC(C)CNC(=O)[C@@]1(C)c2ccccc2C(=O)N(Cc2ccccc2)[C@H]1c1ccc(CO)cc1
-1.44

---

Measured composite z-score of individual entries
Target: Neurogenic locus notch homolog protein 2 (Homo sapiens) (UniProt Q04721)
Sequence (Q04721 whole entry, looked up): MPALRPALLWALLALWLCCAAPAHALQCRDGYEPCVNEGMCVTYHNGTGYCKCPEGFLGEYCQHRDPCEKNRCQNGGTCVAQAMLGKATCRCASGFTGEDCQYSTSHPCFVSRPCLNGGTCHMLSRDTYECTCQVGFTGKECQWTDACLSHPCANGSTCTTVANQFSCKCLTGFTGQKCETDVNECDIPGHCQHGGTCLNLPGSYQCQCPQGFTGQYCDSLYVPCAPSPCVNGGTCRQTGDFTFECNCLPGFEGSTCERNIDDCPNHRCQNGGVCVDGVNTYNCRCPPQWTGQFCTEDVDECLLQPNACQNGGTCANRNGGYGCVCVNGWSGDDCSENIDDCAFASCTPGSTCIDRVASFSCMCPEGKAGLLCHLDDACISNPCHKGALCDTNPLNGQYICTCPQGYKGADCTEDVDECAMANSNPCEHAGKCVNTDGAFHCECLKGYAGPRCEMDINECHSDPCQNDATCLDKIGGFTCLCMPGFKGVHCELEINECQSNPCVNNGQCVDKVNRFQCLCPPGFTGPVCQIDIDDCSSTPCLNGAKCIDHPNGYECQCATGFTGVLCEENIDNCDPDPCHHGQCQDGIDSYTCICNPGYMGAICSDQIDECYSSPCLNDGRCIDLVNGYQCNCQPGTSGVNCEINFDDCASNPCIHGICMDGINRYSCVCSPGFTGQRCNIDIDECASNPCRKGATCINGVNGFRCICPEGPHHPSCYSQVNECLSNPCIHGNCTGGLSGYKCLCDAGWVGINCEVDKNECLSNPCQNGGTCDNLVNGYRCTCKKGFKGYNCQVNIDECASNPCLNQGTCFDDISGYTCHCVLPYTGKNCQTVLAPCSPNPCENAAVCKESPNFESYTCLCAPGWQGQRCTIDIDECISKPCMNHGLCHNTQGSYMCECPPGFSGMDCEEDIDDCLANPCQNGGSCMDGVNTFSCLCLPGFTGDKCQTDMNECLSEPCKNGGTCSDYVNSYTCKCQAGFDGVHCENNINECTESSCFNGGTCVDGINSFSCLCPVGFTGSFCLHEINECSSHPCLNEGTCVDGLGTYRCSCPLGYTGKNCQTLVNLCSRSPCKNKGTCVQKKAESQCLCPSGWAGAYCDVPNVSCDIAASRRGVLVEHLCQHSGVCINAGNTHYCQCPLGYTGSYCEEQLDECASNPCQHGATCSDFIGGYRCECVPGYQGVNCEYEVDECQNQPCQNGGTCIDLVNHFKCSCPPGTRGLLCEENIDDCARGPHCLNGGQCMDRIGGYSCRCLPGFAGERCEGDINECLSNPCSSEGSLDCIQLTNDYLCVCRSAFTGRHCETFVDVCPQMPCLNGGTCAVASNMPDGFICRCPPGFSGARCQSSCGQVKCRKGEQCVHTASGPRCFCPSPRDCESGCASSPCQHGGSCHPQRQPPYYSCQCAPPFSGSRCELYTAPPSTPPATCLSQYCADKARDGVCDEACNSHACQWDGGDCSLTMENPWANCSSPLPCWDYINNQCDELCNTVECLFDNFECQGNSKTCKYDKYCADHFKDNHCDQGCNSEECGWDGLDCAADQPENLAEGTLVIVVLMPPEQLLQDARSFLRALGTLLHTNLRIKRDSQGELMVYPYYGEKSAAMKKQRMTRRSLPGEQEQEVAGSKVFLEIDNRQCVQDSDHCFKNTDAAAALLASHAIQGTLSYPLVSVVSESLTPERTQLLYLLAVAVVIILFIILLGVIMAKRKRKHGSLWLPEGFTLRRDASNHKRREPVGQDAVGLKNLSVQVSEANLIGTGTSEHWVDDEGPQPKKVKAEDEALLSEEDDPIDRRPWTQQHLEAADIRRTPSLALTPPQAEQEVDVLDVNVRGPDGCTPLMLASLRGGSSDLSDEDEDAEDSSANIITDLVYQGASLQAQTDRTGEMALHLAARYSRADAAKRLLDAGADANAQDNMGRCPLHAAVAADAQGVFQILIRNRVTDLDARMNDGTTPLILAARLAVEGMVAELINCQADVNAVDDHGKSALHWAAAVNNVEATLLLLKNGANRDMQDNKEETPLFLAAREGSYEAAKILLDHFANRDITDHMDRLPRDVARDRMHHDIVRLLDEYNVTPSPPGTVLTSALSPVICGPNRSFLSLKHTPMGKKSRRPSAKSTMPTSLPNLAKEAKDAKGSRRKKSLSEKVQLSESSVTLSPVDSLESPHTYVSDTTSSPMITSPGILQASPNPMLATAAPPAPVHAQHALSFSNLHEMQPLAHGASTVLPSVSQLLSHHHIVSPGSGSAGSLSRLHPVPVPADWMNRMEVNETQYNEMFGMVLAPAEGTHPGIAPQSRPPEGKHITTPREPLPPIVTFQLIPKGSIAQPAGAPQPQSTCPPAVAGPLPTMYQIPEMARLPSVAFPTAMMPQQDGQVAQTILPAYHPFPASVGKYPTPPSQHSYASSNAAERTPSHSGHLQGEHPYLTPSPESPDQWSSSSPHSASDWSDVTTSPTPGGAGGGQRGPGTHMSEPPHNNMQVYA
Experiment: small molecules binding Notch2 protein – biochemical, small-molecule microarray, 635 nm fluorescence, stem cell growth factors, primary screen (AID 1073)
Conditions: higher = more signal
Would you mind answering with just the numeric figure?

>>> reading("COCCOC(=O)N1C(=O)[C@@]2(c3cc(C#CCCO)ccc31)[C@H](C(=O)NC[C@H](O)c1ccccc1)[C@H]1C(=O)O[C@H](c3ccccc3)[C@H](c3ccccc3)N1[C@@H]2c1ccccc1OCCO")
1.48
>>> reading("CC(C)CCC[C@@H](C)[C@H]1CC[C@@]2(C)C3=C(CC[C@]12C)[C@@]1(C)CC[C@H](OC(=O)C(C)(C)C)C(C)(C)C1CC3 (stereo partly specified)")
0.575

// query composite z-score value for entry COc1ccc(C(=O)Nc2ccc3c(c2)[C@]2(O[C@@H](CCO)[C@H]([Si](C)(C)c4ccc(OC)cc4)[C@H]2C)C(=O)N3Cc2ccccc2)cc1
0.0879

// query composite z-score value for entry COCCCNC(=O)[C@@]1(Cc2ccccc2N=[N+]=[N-])N=C(c2ccc(OCCCO)cc2)O[C@H]1c1ccccc1CN=[N+]=[N-]
1.47
